Cited source for all entries: the supplement of paper PMC10567573

- experimental_details: protein stability index of a GFP-peptide fusion (GPS, HEK-293T) (PSI 1-6); higher = more stable;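 also: 24-mer peptide tiles fused after GFP, lentivirally expressed, FACS-sorted into six equal bins by GFP/DsRed ratio, decoded by Illumina sequencing, PSI is the read-weighted mean bin number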
- condition: treatment: DMSO; c terminus: a fixed tail appended

[
  {
    "sequence_code": "ADSVITVGRGEVVTVRVPTHEEGS [ACBD3]",
    "protein stability index": 4.88
  },
  {
    "sequence_code": "QNPQITQLKIAANPFAKGFRENGR [TBX6]",
    "protein stability index": 3.33
  },
  {
    "sequence_code": "RRHPGLGKAFPSGCSAVSEPASES [TRAF3IP2]",
    "protein stability index": 4.31
  }
]

---

- experimental_details: protein stability index of a GFP-peptide fusion (GPS, HEK-293T) (PSI 1-6); higher = more stable
- condition: treatment: MLN4924 1 uM, 8 h; c terminus: a fixed tail appended
Each item that follows carries a reported protein stability index.
readout_kind: protein stability index

[
  {
    "sequence_code": "DYSHRQKEQDVEKELRDGGEQDTW [NFE2L1]",
    "quantitative_result": 5.46
  },
  {
    "sequence_code": "ERMTTREKKVLEAGMGKVTSASFG [HDAC6]",
    "quantitative_result": 4.19
  },
  {
    "sequence_code": "MEKATVPVAAATAAEGEGSPPAVA [ANKRD17]",
    "quantitative_result": 5.65
  },
  {
    "sequence_code": "FEKWEQETAAGKGKGEARARLKRS [SMTNL2]",
    "quantitative_result": 5.07
  },
  {
    "sequence_code": "DYSDHPSGGSYRDSYESYGNSRSA [RBMX]",
    "quantitative_result": 4.44
  },
  {
    "sequence_code": "AEVNAVDNEGNSALHIIVQYNRPI [FEM1B]",
    "quantitative_result": 2.48
  },
  {
    "sequence_code": "YPPFWDEDQHRLYQQIKAGAYDFP [CAMK2D]",
    "quantitative_result": 2.64
  },
  {
    "sequence_code": "IQQLLEPQQYMAFLPHHIMVKIFR [FBXO34]",
    "quantitative_result": 2.53
  },
  {
    "sequence_code": "NDTKKMYAMKYMNKQKCVERNEVR [STK32A]",
    "quantitative_result": 3.97
  },
  {
    "sequence_code": "VARPVRFPREHQFFEDGDVQRHLY [ZNF511]",
    "quantitative_result": 3.55
  }
]

---

- experimental_details: protein stability index of a GFP-peptide fusion (GPS, HEK-293T) (PSI 1-6); higher = more stable
- condition: treatment: MLN4924 1 uM, 8 h; c terminus: a fixed tail appended

[
  {
    "sequence_code": "TREQLYQAIFHAVDQYLALPDVSL [MCOLN1]",
    "protein stability index": 2.67
  },
  {
    "sequence_code": "LVWRNSIRSSFISSLSFFLKKMGK [FBXO39]",
    "protein stability index": 2.9
  },
  {
    "sequence_code": "GIVESIQIMKEGKATASEAVDCKW [NETO1]",
    "protein stability index": 3.99
  },
  {
    "sequence_code": "MKFVPRYSLVLELSDSGAFRRSLH [APMAP]",
    "protein stability index": 2.03
  },
  {
    "sequence_code": "ERAIETLIKNFHQYSVEGGKETLT [S100A14]",
    "protein stability index": 3.41
  },
  {
    "sequence_code": "HYFHSISYKIEEISPSTLKNSLFP [KCNK9]",
    "protein stability index": 2.18
  },
  {
    "sequence_code": "QVSPVRRAPSRRHGVRAKVQPQAR [CPN1]",
    "protein stability index": 4.68
  },
  {
    "sequence_code": "VQKDHENYMKILLKVGGILVMPIE [PCMTD1]",
    "protein stability index": 2.16
  },
  {
    "sequence_code": "MSPSMLTRNSPRGCRLPSISSTTC [SPATS1]",
    "protein stability index": 3.03
  },
  {
    "sequence_code": "GDVMFTGTADGRVVKLENGEIETI [APMAP]",
    "protein stability index": 5.06
  },
  {
    "sequence_code": "SSEKLNLQKDLETRPTQHELRLYK [CEP70]",
    "protein stability index": 4.1
  },
  {
    "sequence_code": "KLDKKLKKMEQNKTAATRYRQKKR [ATF4]",
    "protein stability index": 4.42
  },
  {
    "sequence_code": "DHCAQQDHGCEQLCLNTEDSFVCQ [MATN2]",
    "protein stability index": 5.08
  },
  {
    "sequence_code": "GPHEAFNKLWELCCQWLKPKMRSK [ZNF449]",
    "protein stability index": 2.99
  },
  {
    "sequence_code": "FYKDWWNSTSYSNYYRTWNVVVHD [SOAT1]",
    "protein stability index": 2.15
  },
  {
    "sequence_code": "QKYDPDKDEWHKVFDLPESLGGIR [KLHL13]",
    "protein stability index": 3.93
  },
  {
    "sequence_code": "PEEGQQPWLCGESFTLADVSLAVT [GDAP1]",
    "protein stability index": 3.4
  }
]

---

- experimental_details: protein stability index of a GFP-peptide fusion (GPS, HEK-293T) (PSI 1-6); higher = more stable
- condition: treatment: MLN4924 1 uM, 8 h; c terminus: a fixed tail appended
Rule: true for protein stability index not less than 3, false for anything less.

[
  {
    "sequence_code": "FIYMVLSLFIALITGAYDTIKHPG [MCOLN1]",
    "label_value": "false"
  },
  {
    "sequence_code": "THLEAQNRIKGCHDHLTLSVSRPE [PDLIM4]",
    "label_value": "true"
  },
  {
    "sequence_code": "KKQDENEGIKVEDLLFIVDTMLEE [CEP70]",
    "label_value": "true"
  },
  {
    "sequence_code": "PPKVKAEDGMQCLQLKETLATQEP [DLC1]",
    "label_value": "true"
  },
  {
    "sequence_code": "INQPLPDLKNVKSKIGSTDNIKYQ [MAP2]",
    "label_value": "true"
  },
  {
    "sequence_code": "RMLEFDPAQRITLAEALLHPFFAG [CLK3]",
    "label_value": "false"
  },
  {
    "sequence_code": "IHSIPKGTEITIAFDFDYGNCKYK [KMT2E]",
    "label_value": "false"
  },
  {
    "sequence_code": "WPRNPPSRLLGAAAGQRSRPSTYY [DNAJC4]",
    "label_value": "true"
  },
  {
    "sequence_code": "IERANNVKYGLAATVWSSNVGRVH [ALDH8A1]",
    "label_value": "false"
  },
  {
    "sequence_code": "LLPKGSKEEQRDYVFYLAVGNYRL [FIS1]",
    "label_value": "false"
  },
  {
    "sequence_code": "HGNSGHPLVLSYIDLSAWCYYCQA [HDAC6]",
    "label_value": "true"
  },
  {
    "sequence_code": "INYLGAESLRPLVQTPPGGSEVVP [IKZF1]",
    "label_value": "true"
  },
  {
    "sequence_code": "CVQCGKSYSQSSNLFRHQRRHNAE [ZNF24]",
    "label_value": "true"
  },
  {
    "sequence_code": "DTELLGQATLPVGSPSRPLSRRQL [C2CD2L]",
    "label_value": "true"
  },
  {
    "sequence_code": "SMQEDEQSGRDLQQYQSQAKQLFR [SEC22B]",
    "label_value": "true"
  },
  {
    "sequence_code": "PSGTPELEVPKPGQPSEPEHGPSP [CHIT1]",
    "label_value": "true"
  },
  {
    "sequence_code": "RQITQVYGFYDECLRKYGNANVWK [PPP2CA]",
    "label_value": "false"
  },
  {
    "sequence_code": "QVYYFGPCGKYNAMVLELLGPSLE [CSNK1G1]",
    "label_value": "false"
  }
]

---

- experimental_details: protein stability index of a GFP-peptide fusion (GPS, HEK-293T) (PSI 1-6); higher = more stable
- condition: treatment: MLN4924 1 uM, 8 h; c terminus: a fixed tail appended

[
  {
    "sequence_code": "SHSNITGIVEVILGETKAYVFFEK [TRIB1]",
    "protein stability index": 1.9
  },
  {
    "sequence_code": "SPVTRTRSLSACNKRVGMYLEGFD [DLC1]",
    "protein stability index": 3.19
  },
  {
    "sequence_code": "SSNVSLSLFVLDQNDNAPEILYPA [PCDHGA10]",
    "protein stability index": 2.38
  },
  {
    "sequence_code": "SLSDQMSVLQSVWMEVLVLGVAQR [ESRRA]",
    "protein stability index": 2.98
  },
  {
    "sequence_code": "MYYRGSAAAIIVYDITKEETFSTL [RAB22A]",
    "protein stability index": 2.72
  },
  {
    "sequence_code": "SIHCLGPIKLELLEPKANLQAALQ [VPS39]",
    "protein stability index": 2.45
  },
  {
    "sequence_code": "DHSSQSEEEVVEGEKEVEALKKSA [BNIP3L]",
    "protein stability index": 5.67
  },
  {
    "sequence_code": "YEDGEVEEEADSCFGDDEDDSGTE [CDC34]",
    "protein stability index": 5.67
  },
  {
    "sequence_code": "VVPPTPPVVKKKGVKRKADTTTPT [BRD3]",
    "protein stability index": 4.82
  },
  {
    "sequence_code": "VSGCPEDLTVGRAPTADDDDDDHD [NOL4L]",
    "protein stability index": 5.63
  },
  {
    "sequence_code": "QIEKTTNREACRDLSGRRLRDVNH [SDE2]",
    "protein stability index": 4.11
  },
  {
    "sequence_code": "GNLQLDCLAQGWKQYQQRAFGWFR [RTP4]",
    "protein stability index": 2.24
  },
  {
    "sequence_code": "SGNDPFAPSEGSAEAAPELDLFAM [SNAP91]",
    "protein stability index": 4.89
  },
  {
    "sequence_code": "IDDRYGDLDSRTDSDIPEIPPSSD [CDS1]",
    "protein stability index": 5.45
  },
  {
    "sequence_code": "FLDIPRSRLVKYPLLLKEILKHTP [NET1]",
    "protein stability index": 2.34
  },
  {
    "sequence_code": "NAFQETWYWHGDVNSNKVVMSGVK [LOXL2]",
    "protein stability index": 2.84
  },
  {
    "sequence_code": "SILTDNPTWIIDPIDGTTNFVHRF [IMPA1]",
    "protein stability index": 2.12
  },
  {
    "sequence_code": "GFPRVAPEDEVIVNQYVIRPGPSA [RNF208]",
    "protein stability index": 3.67
  },
  {
    "sequence_code": "LVCTFSSQVCRVAYEIMQTLHPDA [FUT8]",
    "protein stability index": 3.22
  },
  {
    "sequence_code": "QEAFLVQEVVELPVTERQIEREHL [TBC1D10A]",
    "protein stability index": 4.71
  },
  {
    "sequence_code": "GIVLQGPALCFAAAIFSLFFVPLS [TMEM175]",
    "protein stability index": 2.83
  },
  {
    "sequence_code": "QTVGVGRGRFTTYEIRVKTNLPIF [SNX3]",
    "protein stability index": 3.02
  },
  {
    "sequence_code": "PSLSPGAFSYSSSSRFSSSRLLGS [PRPH]",
    "protein stability index": 3.28
  },
  {
    "sequence_code": "AWAAHTRLFQVVGKTDDTLALLNL [TMEM175]",
    "protein stability index": 2.03
  }
]
